I'd appreciate it if you could supply IC80 values for the items below.
# System: ornithine decarboxylase (ODC)
# testDetails: Inhibition of TPA induction of ornithine decarboxylase (ODC) (Table 2)
# Assay type: cell-based
# conditionSummary: concentration which results in 80 per cent inhibition of the ODC induction activity by TPA
Numbers only, in nM.

Please review the following examples before continuing.
> print(dat)
                                   compound  measured
1  CCOC(=O)c1ccc(C#Cc2ccc3c(c2)C(C)(C)CC(=S)N3)cc1 [Compound 8]        54
2  CCOC(=O)c1ccc(C#Cc2ccc3c(c2)C(C)(C)CC(=S)N3C(C)C)cc1 [Compound 7]       5.5
3  CCOC(=O)c1ccc(C#Cc2ccc3c(c2)C(C)(C)CC(=O)N3C(C)C)cc1 [Compound 5]       6.4

--- query ---
In plain terms, CCOC(=O)c1ccc(C#Cc2ccc3c(c2)C(C)(C)CC(SC)=N3)cc1 [Compound 9] has a documented IC80 of 29
